- ASSAY REMARKS: BET inhibitor-based combinations targeting novel dependencies in MECOM-rearranged (r) AML: HNT-34 cell line (AID 2202234); note: nearly all actives have a fitted effect of over 35% in size
- SETUP CONDITIONS: HNT-34 AML viability, CellTiter-Glo luminescence, 48 h; series mostly up to 46 µM
Inconclusive results are not listed. The source made the active and inactive calls. Calls come from the whole dose curve; as a rule, active = well fitted inhibition curve with a large enough effect; inconclusive = small, poorly fitted or top-dose-only effect; inactive = no such curve, though single readings can be large or run the other way.
Form entry, call: pick from label 1 (active), label 0 (inactive)

Reference set (3 entries):
| COMPOUND | ASSIGNED CLASS |
| --- | --- |
| Cn1ccc2cc3c(cc21)CCN3C(=O)Nc1cccnc1 | label 0 |
| CN1CCN(CCOc2cc(OC3CCOCC3)c3c(Nc4c(Cl)ccc5c4OCO5)ncnc3c2)CC1 | label 1 |
| CC(=O)OCC(=O)[C@@]1(O)CC[C@H]2[C@@H]3CCC4=CC(=O)CC[C@]4(C)[C@H]3C(=O)C[C@@]21C | label 0 |

Req: What was the test verdict on "O=c1ccn([C@@H]2O[C@H](CO)[C@@H](O)[C@H]2O)c(=O)[nH]1" ?
Resp: label 0

Req: What was the test verdict on "COc1cc(CNC(=O)CCCC/C=C/C(C)C)ccc1O" ?
Resp: label 1

Req: What was the test verdict on "C1COC(NC(C2CC2)C2CC2)=N1" ?
Resp: label 0

Req: What was the test verdict on "C[C@]12C=CC(=O)C=C1CC[C@@H]1[C@@H]2C(=O)C[C@@]2(C)[C@H]1CC[C@]2(O)C(=O)CO" ?
Resp: label 0

Req: What was the test verdict on CC(=O)SCC(Cc1ccccc1)C(=O)NCC(=O)OCc1ccccc1 (stereo not given) ?
Resp: label 0

Req: What was the test verdict on "CCc1c(O)cc(O)c(C(=O)c2ccc(OCCN3CCOCC3)c(OC)c2)c1CC(=O)N(CCOC)CCOC" ?
Resp: label 1

Req: What was the test verdict on "O=C(NNc1ccccc1)c1ccncc1" ?
Resp: label 0

Req: What was the test verdict on "CC(=O)N(O)CCCCCNC(=O)CCC(=O)N(O)CCCCCNC(=O)CCC(=O)N(O)CCCCCN" ?
Resp: label 1

Req: What was the test verdict on "CN(CCOc1ccc(NS(C)(=O)=O)cc1)CCc1ccc(NS(C)(=O)=O)cc1" ?
Resp: label 0

Req: What was the test verdict on "Cc1cnc(Nc2ccc(OCCN3CCCC3)cc2)nc1Nc1cccc(S(=O)(=O)NC(C)(C)C)c1" ?
Resp: label 1

Req: What was the test verdict on "Cn1cncc1[C@@](N)(c1ccc(Cl)cc1)c1ccc2c(c1)c(-c1cccc(Cl)c1)cc(=O)n2C" ?
Resp: label 1

Req: What was the test verdict on "CC(C)(C)Sc1c(CC(C)(C)C(=O)O)n(Cc2ccc(Cl)cc2)c2ccc(OCc3ccc4ccccc4n3)cc12" ?
Resp: label 1

Req: What was the test verdict on O[C@@H](COc1cccc2ncccc12)CN1CCN(C2c3ccccc3[C@@H]3[C@H](c4ccccc42)C3(F)F)CC1 (stereo not given in full) ?
Resp: label 1

Taken from PubChem BioAssay (NCATS).
